# system under test: T1, recombinant human protein hHER2 (R&D Systems) (human, UniProt P04626 23-652)
# T1 construct: also called human HER2 (hHER2) recombinant protein
# protocol: BLI (Octet), hHER2 on Protein A biosensors, steady state analysis
quantity measured: Kd (nM)
Report only the number, with the unit nM understood.

Tell me the measured Kd of IRDye800CW-Aff02 conjugate (designed binder, chain 1 pos 77: Cys carrying IRDye800CW through a maleimide thioether, written C, Aff02 was reduced with TCEP, then coupled to IRDye800CW-maleimide at the C-terminal Cys) MRGSHHHHHHGSVKVKFWGAGVEKEVDTSKITWVTRSGKYVIFTYDDNGKAGPGRVPEKDAPKELLDMLARAEREKC , please.
1.6

Each recorded value in this set is attributed to patent US20230040008A1.
